- Measured on: human CLK1 (Homo sapiens, UniProt P49759)
- Construct: Recombinant human CLK1 (129-end); GST (N); purchased SignalChem C57-11G; host or cells: Sf9 insect cells
- Sequence (P49759 129-484 limits assumed): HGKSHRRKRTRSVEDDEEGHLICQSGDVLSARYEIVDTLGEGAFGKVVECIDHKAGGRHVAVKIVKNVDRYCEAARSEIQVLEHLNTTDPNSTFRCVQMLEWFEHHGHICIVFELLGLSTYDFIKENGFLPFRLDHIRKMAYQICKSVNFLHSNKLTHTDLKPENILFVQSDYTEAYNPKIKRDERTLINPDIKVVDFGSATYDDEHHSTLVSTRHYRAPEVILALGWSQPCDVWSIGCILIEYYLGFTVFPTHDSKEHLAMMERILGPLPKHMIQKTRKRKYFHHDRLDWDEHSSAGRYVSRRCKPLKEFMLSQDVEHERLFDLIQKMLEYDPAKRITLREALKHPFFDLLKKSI
- Assay procedure: CLK1 enzyme assay (ADP-Glo)
- Assay type: biochemical
- Conditions used: ADP-Glo, ATP 10 μM; read-out: CLK1 IC50
Kindly state IC50 for each of the entries shown.

As a guide, the following entries are already answered.
- Compound: "O=C1NC(Nc2ccc3ncsc3c2)=N/C1=C\\c1ccc2occc2c1 [Example 59]"
  IC50: "> 10000 nM"
- Compound: "O=C1NC(Nc2ccccc2)=N/C1=C\\c1ccc2[nH]ncc2c1 [Example 55]"
  IC50: "< 100 nM"
- Compound: "O=C1NC(Nc2ccc(Cl)cc2)=N/C1=C\\c1ccc2ncsc2c1 [Example 40]"
  IC50: "< 100 nM"
- Compound: "O=C1NC(Nc2ccc3[nH]ccc3c2)=N/C1=C\\c1ccc2ncsc2c1 [Example 69]"
  IC50: "< 100 nM"
- Compound: "O=C1NC(Nc2ccc3nc(Nc4ccccc4)sc3c2)=N/C1=C\\c1ccc2ncsc2c1 [Example 104]"
  IC50: "< 100 nM"

Provide each entry's IC50 from the list below.
1. Cn1cnc2cc(NC3=N/C(=C\c4ccc5ncsc5c4)C(=O)N3)ccc21 [Example 61]
2. O=C1NC(Nc2ccc3sccc3c2)=N/C1=C\c1ccc2ncsc2c1 [Example 101]
3. O=C1NC(Nc2ccccc2)=N/C1=C\c1ccc2ncsc2c1 [Example 6]
4. O=C1NC(Nc2ccccc2)=N/C1=C\c1ccc2nn[nH]c2c1 [Example 56]
5. O=C1NC(N(CC2CC2)c2ccc3ncsc3c2)=N/C1=C\c1ccc2ncsc2c1 [Example 105]
6. O=C1NC(Nc2ccc3ncsc3c2)=N/C1=C\c1ccc2c(c1)OCCO2 [Example 74]

["100 to 1000 nM", "100 to 1000 nM", "< 100 nM", "< 100 nM", "> 10000 nM", "> 10000 nM"]

Provide each entry's IC50 from the list below.
1. CN(C1=N/C(=C\c2ccc3ncsc3c2)C(=O)N1)c1ccc([N+](=O)[O-])cc1 [Example 43]
2. NC(=O)CCN(C1=N/C(=C\c2ccc3c(c2)OCO3)C(=O)N1)c1ccccc1 [Example 36]
3. O=C1NC(Nc2ccc3ncsc3c2)=N/C1=C\c1ccc2nccnc2c1 [Example 94]
4. O=C1NC(Nc2ccccc2)=N/C1=C\c1ccc2ncccc2c1 [Example 53]
5. O=C1NC(Nc2ccccc2)=N/C1=C\c1ccc2sccc2c1 [Example 72]
6. O=C1NC(Nc2ccc3ncsc3c2)=N/C1=C\c1ccc2c(c1)OCO2 [Example 47]

["1000 to 10000 nM", "100 to 1000 nM", "> 10000 nM", "< 100 nM", "> 10000 nM", "> 10000 nM"]

====

- Measured on: human CLK1 (Homo sapiens)
- Construct: Recombinant human CLK1 (129-end); GST (N); purchased SignalChem C57-11G; host or cells: Sf9 insect cells
- Assay procedure: CLK1 enzyme assay (ADP-Glo)
- Type: biochemical
- Conditions used: ADP-Glo, ATP 10 μM; read-out: CLK1 IC50
Measured metric: IC50

As a guide, the following entries are already answered.
- Molecule: "O=C1NC(Nc2ccc3c(c2)OCCO3)=N/C1=C\\c1ccc2ncsc2c1 [Example 81]"
  IC50: "< 100 nM"
- Molecule: "O=C1NC(Nc2ccccc2)=N/C1=C\\c1ccc2cn[nH]c2c1 [Example 54]"
  IC50: "> 10000 nM"
- Molecule: "CN(C1=N/C(=C\\c2ccc3ncsc3c2)C(=O)N1)c1ccc(Cl)cc1 [Example 24]"
  IC50: "100 to 1000 nM"
- Molecule: "COc1ccccc1N(C)C1=N/C(=C\\c2ccc3c(c2)OCO3)C(=O)N1 [Example 21]"
  IC50: "1000 to 10000 nM"
- Molecule: "CN(C1=N/C(=C\\c2ccc3c(c2)OCCO3)C(=O)N1)c1ccccc1 [Example 8]"
  IC50: "1000 to 10000 nM"
- Molecule: "CN(Cc1ccccc1)C1=N/C(=C\\c2ccc3ncsc3c2)C(=O)N1 [Example 28]"
  IC50: "100 to 1000 nM"

Provide each entry's IC50 from the list below.
1. COc1ccc(N(C)C2=N/C(=C\c3ccc4c(c3)OCO4)C(=O)N2)cc1 [Example 12]
2. O=C1NC(NC23CC4CC(CC(C4)C2)C3)=N/C1=C\c1ccc2scnc2c1 [Example 50]
3. O=C1NC(Nc2ccccc2)=N/C1=C\c1ccc2[nH]ccc2c1 [Example 51]

1: 100 to 1000 nM; 2: > 10000 nM; 3: > 10000 nM

Provide each entry's IC50 from the list below.
1. O=C1NC(Nc2ccc3ncsc3c2)=N/C1=C\c1ccc2[nH]ccc2c1 [Example 58]
2. CN(CC1CC1)C1=N/C(=C\c2ccc3ncsc3c2)C(=O)N1 [Example 33]
3. CC(C)NC1=N/C(=C\c2ccc3scnc3c2)C(=O)N1 [Example 49]
4. CC(C)Nc1nc2ccc(NC3=N/C(=C\c4ccc5ncsc5c4)C(=O)N3)cc2s1 [Example 100]
5. O=C1NC(Nc2ccc3ncsc3c2)=N/C1=C\c1cncs1 [Example 92]

1: > 10000 nM; 2: 100 to 1000 nM; 3: > 10000 nM; 4: 1000 to 10000 nM; 5: < 100 nM

Provide each entry's IC50 from the list below.
1. O=C1/C(=C/c2ccc3ncsc3c2)N=C(N(Cc2ccccc2)c2ccccc2)N1Cc1ccccc1 [Example 42]
2. CN(C1=N/C(=C\c2ccc3[nH]cnc3c2)C(=O)N1)c1ccccc1 [Example 30]
3. O=C1NC(Nc2ccccc2)=N/C1=C\c1ccc(=O)[nH]c1 [Example 9]
4. O=C1NC(Nc2ccc3ncsc3c2)=N/C1=C\c1ccc2cn[nH]c2c1 [Example 95]
5. CN(C1=N/C(=C\c2ccc3ncsc3c2)C(=O)N1)c1ccc2ncsc2c1 [Example 83]
6. O=C1NC(N(Cc2ccccc2)c2ccccc2)=N/C1=C\c1ccc2[nH]cnc2c1 [Example 35]

["> 10000 nM", "100 to 1000 nM", "100 to 1000 nM", "> 10000 nM", "< 100 nM", "100 to 1000 nM"]

Provide each entry's IC50 from the list below.
1. CN(C1=N/C(=C\c2ccc3c(c2)OC(F)(F)O3)C(=O)N1)c1ccccc1 [Example 17]
2. Nc1ccc(NC2=N/C(=C\c3ccc4ncsc4c3)C(=O)N2)cc1 [Example 98]
3. CN(C1=N/C(=C\c2ccc3c(c2)OCO3)C(=O)N1)c1ccc2ncsc2c1 [Example 70]
4. O=C1NC(=S)N/C1=C\c1ccc2sccc2c1 [Example 96]
5. CN(C1=N/C(=C\c2ccc3c(c2)OCCO3)C(=O)N1)c1ccc2ncsc2c1 [Example 84]
6. COc1ccc(NC2=N/C(=C\c3ccc4ncsc4c3)C(=O)N2)cc1 [Example 25]
7. CN(CCN1CCOCC1)C1=N/C(=C\c2ccc3c(c2)OCO3)C(=O)N1 [Example 20]

1. > 10000 nM
2. < 100 nM
3. < 100 nM
4. > 10000 nM
5. 100 to 1000 nM
6. < 100 nM
7. 100 to 1000 nM

====

- Measured on: human GSK3 beta (Homo sapiens, UniProt P49841)
- Construct: Recombinant full-length human GSK3 beta (expressed in Sf9 insect cells with an N-terminal His tag); His (N)
- Sequence (P49841 whole entry): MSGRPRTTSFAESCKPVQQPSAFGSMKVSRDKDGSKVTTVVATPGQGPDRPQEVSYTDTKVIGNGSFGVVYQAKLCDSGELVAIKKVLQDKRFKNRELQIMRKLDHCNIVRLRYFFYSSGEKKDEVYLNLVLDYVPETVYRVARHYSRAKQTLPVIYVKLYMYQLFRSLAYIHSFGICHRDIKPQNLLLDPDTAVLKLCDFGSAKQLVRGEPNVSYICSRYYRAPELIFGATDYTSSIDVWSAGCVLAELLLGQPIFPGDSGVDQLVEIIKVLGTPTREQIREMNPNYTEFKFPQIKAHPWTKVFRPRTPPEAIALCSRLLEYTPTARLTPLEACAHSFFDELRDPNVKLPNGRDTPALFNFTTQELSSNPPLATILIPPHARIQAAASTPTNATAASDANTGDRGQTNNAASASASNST
- Assay procedure: GSK3 beta enzyme assay (ADP-Glo)
- Conditions used: ATP 25 μM, read-out: GSK3b IC50
pIC50: −log10 of the molar value.
Measured metric: pIC50

As a guide, the following entries are already answered.
- Structure: "O=C1NC(Nc2ccc3ncsc3c2)=N/C1=C\\c1ccc2cccnc2c1"
  pIC50: "< 5.00"
- Structure: "CN(CCN1CCOCC1)C1=N/C(=C\\c2ccc3ncsc3c2)C(=O)N1"
  pIC50: "5.00 to 6.00"
- Structure: "CN(C1=N/C(=C\\c2ccc3ncsc3c2)C(=O)N1)c1ccc([N+](=O)[O-])cc1"
  pIC50: "< 5.00"

Provide each entry's pIC50 from the list below.
1. O=C1NC(Nc2ccccc2)=N/C1=C\c1ccc2[nH]ccc2c1
2. CN(CC1CC1)C1=N/C(=C\c2ccc3ncsc3c2)C(=O)N1
3. O=C1NC(N(Cc2ccccc2)c2ccccc2)=N/C1=C\c1ccc2ncsc2c1
4. CN(C1=N/C(=C\c2ccc3c(c2)OCCO3)C(=O)N1)c1ccc2ncsc2c1
5. O=C1NC(Nc2ccc3ncsc3c2)=N/C1=C\c1ccc2scnc2c1

["< 5.00", "< 5.00", "5.00 to 6.00", "5.00 to 6.00", "< 5.00"]

====

- Measured on: human DYRK1A (Homo sapiens, UniProt Q13627)
- Construct: Recombinant full-length DYRK1A (expressed in E. Coli cells with an N-terminal GST tag); GST (N); purchased SignalChem D09-10G; host or cells: E. coli
- Assay procedure: DYRK1A enzyme assay (ADP-Glo)
- Format: biochemical
- Conditions used: ADP-Glo, ATP 60 μM; read-out: DYRK1A IC50
Measured metric: IC50

As a guide, the following entries are already answered.
- Structure: "COc1ccc(N(C)C2=N/C(=C\\c3ccc4c(c3)OCO4)C(=O)N2)cc1"
  Measured on: "human DYRK1A (Homo sapiens, UniProt Q13627)"
  IC50: "0.1 to 1 µM"
- Structure: "O=C1NC(Nc2ccc3ncsc3c2)=N/C1=C\\c1ccc2cc[nH]c2c1"
  Measured on: "human DYRK1A (Homo sapiens, UniProt Q13627)"
  IC50: "> 10 µM"

Provide each entry's IC50 from the list below.
1. O=C1NC(N(Cc2ccccc2)c2ccccc2)=N/C1=C\c1ccc2[nH]cnc2c1
2. Cn1cnc2cc(/C=C3\N=C(Nc4ccccc4)NC3=O)ccc21
3. O=C1NC(Nc2ccccc2)=N/C1=C\c1ccc2[nH]ccc2c1
4. CN(C1=N/C(=C\c2ccc3c(c2)OC(F)(F)O3)C(=O)N1)c1ccccc1
5. Cn1ncc2cc(/C=C3\N=C(Nc4ccccc4)NC3=O)ccc21
6. O=C1NC(Nc2ccccc2)=N/C1=C\c1cncs1
7. O=C1NC(Nc2ccccc2)=N/C1=C\c1ccc2[nH]cnc2c1

1. 1 to 10 µM
2. > 10 µM
3. > 10 µM
4. > 10 µM
5. < 0.1 µM
6. > 10 µM
7. < 0.1 µM
